- Tgt: human MCH receptor (Homo sapiens, UniProt Q99705)
- Construct: expressed in transfected cells
- Sequence (Q99705 whole entry): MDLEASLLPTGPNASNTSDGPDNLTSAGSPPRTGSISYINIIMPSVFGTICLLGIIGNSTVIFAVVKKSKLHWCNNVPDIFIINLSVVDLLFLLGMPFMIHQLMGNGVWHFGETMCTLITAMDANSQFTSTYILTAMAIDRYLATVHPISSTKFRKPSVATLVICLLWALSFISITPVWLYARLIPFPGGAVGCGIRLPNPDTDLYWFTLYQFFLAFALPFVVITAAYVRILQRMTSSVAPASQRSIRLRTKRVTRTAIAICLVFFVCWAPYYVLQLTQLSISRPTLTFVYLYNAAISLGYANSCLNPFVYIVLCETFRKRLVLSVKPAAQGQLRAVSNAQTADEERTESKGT
- Assay Name: calcium mobilization assay (FLIPR), functional IC50 of MCH1R antagonists
- Type: cell-based
- Condition Notes: recombinant HEK293 cell line expressing the human MCH receptor; calcium flux after addition of agonist (MCH); read-out: IC50
# note: exactly 200 nM is not below, so it is not met; use met for IC50 strictly under it

**Q:** Does the reported IC50 of CN(C(=O)c1ccc(OCC2CC2)cc1)[C@H]1CCc2cc(CN3C[C@@H]4CC[C@H]3C4)ccc2C1 [Example 7-02] stay below 200 nM?
**A:** not met

**Q:** Does the reported IC50 of CN(C(=O)c1ccc(OCC2CC2)cn1)[C@H]1CCc2cc(CNCC3CCOCC3)ccc2C1 [Example 3] stay below 200 nM?
**A:** met

**Q:** Does the reported IC50 of O=C(N[C@H]1CCc2cc(CNCC3CCOCC3)ccc2C1)c1ccc(NC(=O)C(F)(F)F)cc1 [Example 2-04] stay below 200 nM?
**A:** not met

**Q:** Does the reported IC50 of CN(C(=O)c1ccc(OCC2CC2)cc1)[C@H]1CCc2cc(CNCC(C)(C)C)ccc2C1 [Example 7-11] stay below 200 nM?
**A:** not met

**Q:** Does the reported IC50 of CN(C(=O)c1ccc(OCC2CC2)cc1)[C@H]1CCc2cc(CNC[C@H]3CCCO3)ccc2C1 [Example 1-03] stay below 200 nM?
**A:** met

**Q:** Does the reported IC50 of CCCCOc1ccc(C(=O)N(C)[C@H]2CCc3cc(CNCC4CCOCC4)ccc3C2)nc1 [Example 2-07] stay below 200 nM?
**A:** met

**Q:** Does the reported IC50 of CN(C(=O)c1ccc(OCC2CC2)cc1)[C@H]1CCc2cc(CN3CCC(C(C)(C)O)CC3)ccc2C1 [Example 7-04] stay below 200 nM?
**A:** met

**Q:** Does the reported IC50 of CCOCCNCc1ccc2c(c1)CC[C@H](N(C)C(=O)c1ccc(OCC3CC3)cc1)C2 [Example 7-23] stay below 200 nM?
**A:** met

**Q:** Does the reported IC50 of CN(C(=O)c1ccc(OCC2CC2)cc1)[C@H]1CCc2cc(CNC3CCCCC3)ccc2C1 [Example 7-07] stay below 200 nM?
**A:** not met

**Q:** Does the reported IC50 of CN(C(=O)c1ccc(OCC2CC2)cc1)[C@H]1CCc2cc(C3CCCCN3)ccc2C1 (stereo partly drawn) [Example 4-03] stay below 200 nM?
**A:** not met

**Q:** Does the reported IC50 of CN(Cc1ccc2c(c1)CC[C@H](N(C)C(=O)c1ccc(OCC3CC3)cc1)C2)CC1CCOCC1 [Example 1-13] stay below 200 nM?
**A:** not met

**Q:** Does the reported IC50 of CN(C(=O)c1ccc(OCC2CC2)cc1)[C@H]1CCc2cc(CN3CCC3)ccc2C1 [Example 7-09] stay below 200 nM?
**A:** not met

**Q:** Does the reported IC50 of CCN1[C@@H](c2ccc3c(c2)CC[C@H](N(C)C(=O)c2ccc(OCC4CC4)cc2)C3)CC[C@@H]1C [Example 5-05] stay below 200 nM?
**A:** not met

**Q:** Does the reported IC50 of CCC1(CNCc2ccc3c(c2)CC[C@H](N(C)C(=O)c2ccc(OCC4CC4)cn2)C3)CC1 [Example 7-31] stay below 200 nM?
**A:** met

**Q:** Does the reported IC50 of CCN1CCC[C@@H]1c1ccc2c(c1)CC[C@H](N(C)C(=O)c1ccc(OCC3CC3)cc1)C2 [Example 5-02] stay below 200 nM?
**A:** met

**Q:** Does the reported IC50 of CN(C(=O)c1ccc(OCC2CC2)cn1)[C@H]1CCc2cc(CNCC3CCCC3)ccc2C1 [Example 7-30] stay below 200 nM?
**A:** met

**Q:** Does the reported IC50 of CC[C@H](O)COc1ccc(C(=O)N[C@H]2CCc3cc(CN4CCCC4)ccc3C2)cc1 [Example 6-02] stay below 200 nM?
**A:** not met

**Q:** Does the reported IC50 of CCCCOc1ccc(C(=O)N[C@H]2CCc3cc(CN4CC5CCC4C5)ccc3C2)cc1 (stereo partly drawn) [Example 7-01] stay below 200 nM?
**A:** not met

**Q:** Does the reported IC50 of CN(C(=O)c1ccc(OCC2CC2)cc1)[C@H]1CCc2cc(CN3CCC(O)CC3)ccc2C1 [Example 7-06] stay below 200 nM?
**A:** not met

**Q:** Does the reported IC50 of CN(C(=O)c1ccc(NC(=O)C(F)(F)F)cc1)[C@H]1CCc2cc(CNCC3CCOCC3)ccc2C1 [Example 2-02] stay below 200 nM?
**A:** not met

**Q:** Does the reported IC50 of CCOCCCNCc1ccc2c(c1)CC[C@H](N(C)C(=O)c1ccc(OCC3CC3)cc1)C2 [Example 7-20] stay below 200 nM?
**A:** met

**Q:** Does the reported IC50 of CCCCOc1ccc(C(=O)N(C)[C@H]2CCc3cc(CN4CCCC4)ccc3C2)cc1 [Example 6-03] stay below 200 nM?
**A:** not met

**Q:** Does the reported IC50 of CCN1CCCCC1c1ccc2c(c1)CC[C@H](N(C)C(=O)c1ccc(OCC3CC3)cc1)C2 (stereo partly drawn) [Example 5-07] stay below 200 nM?
**A:** not met

**Q:** Does the reported IC50 of CC(C)(C)CNCc1ccc2c(c1)CC[C@H](NC(=O)c1ccc(OCC3CC3)cc1)C2 [Example 7-13] stay below 200 nM?
**A:** met

**Q:** Does the reported IC50 of CN(C(=O)c1ccc(OCC2CC2)cc1)[C@H]1CCc2cc(CN3CC4CCC3CC4)ccc2C1 [Example 7-03] stay below 200 nM?
**A:** not met

**Q:** Does the reported IC50 of COCC1(CNCc2ccc3c(c2)CC[C@H](N(C)C(=O)c2ccc(OCC4CC4)cc2)C3)CC1 [Example 7-22] stay below 200 nM?
**A:** met

**Q:** Does the reported IC50 of CN(C(=O)c1ccc(OCC2CC2)cc1)[C@H]1CCc2cc(CNCC3COCCO3)ccc2C1 (stereo partly drawn) [Example 1-09] stay below 200 nM?
**A:** met

* * *

Consider the following compounds; for each one, report its solubility kinetic.
- Assay Name: nephelometric (kinetic) solubility determination, phosphate buffer pH 7.4
- Type: physicochemical
- Condition Notes: aqueous buffer, kinetic from dmso stock, nephelometry, Table 8, reference compounds versus inventive examples
The reply should contain only the number, in µg/mL.

**Q:** Bench note: what solubility kinetic did O=C(N[C@H]1CCc2cc(CN3CCCC3)ccc2C1)c1ccc(-c2ccc(F)cc2)cc1 [Ref-1, reference compound] show?
**A:** 3

**Q:** Bench note: what solubility kinetic did CN(C(=O)c1ccc(-c2ccc(F)cc2)cc1)[C@H]1CCc2cc(CN3CCCC3)ccc2C1 [Ref-2, reference compound] show?
**A:** 7

* * *

- Assay Name: nephelometric (kinetic) solubility determination, phosphate buffer pH 7.4
- Assay type: physicochemical
- Condition Notes: aqueous buffer, kinetic from dmso stock, nephelometric, Table 7
Readout Type: solubility kinetic

**Q:** Bench note: what solubility kinetic did CCC(COC)NCc1ccc2c(c1)CC[C@H](N(C)C(=O)c1ccc(OCC3CC3)cc1)C2 (stereo partly shown) show?
**A:** > 282 µg/mL

**Q:** Bench note: what solubility kinetic did CN(C(=O)c1ccc(OCC2CC2)cc1)[C@H]1CCc2cc(CNC3CCC3)ccc2C1 show?
**A:** > 266 µg/mL

**Q:** Bench note: what solubility kinetic did COCCCNCc1ccc2c(c1)CC[C@H](N(C)C(=O)c1ccc(OCC3CC3)cc1)C2 show?
**A:** > 275 µg/mL

**Q:** Bench note: what solubility kinetic did CCC1(CNCc2ccc3c(c2)CC[C@H](N(C)C(=O)c2ccc(OCC4CC4)cn2)C3)CC1 show?
**A:** > 281 µg/mL

**Q:** Bench note: what solubility kinetic did O=C(N[C@H]1CCc2cc(CN3CCCCCC3)ccc2C1)c1ccc(OCC2CCC2)cc1 show?
**A:** < 4 µg/mL

**Q:** Bench note: what solubility kinetic did CN(C(=O)c1ccc(OCC2CC2)cc1)[C@H]1CCc2cc(CNCC3CC3)ccc2C1 show?
**A:** > 266 µg/mL

**Q:** Bench note: what solubility kinetic did CC1CCN(Cc2ccc3c(c2)CC[C@H](N(C)C(=O)c2ccc(OCC4CC4)cn2)C3)CC1 show?
**A:** > 281 µg/mL

**Q:** Bench note: what solubility kinetic did CN(C(=O)c1ccc(OCC2CC2)cc1)[C@H]1CCc2cc(CNCC3CCCOC3)ccc2C1 (stereo partly shown) show?
**A:** > 288 µg/mL

**Q:** Bench note: what solubility kinetic did CC1CCC(CNCc2ccc3c(c2)CC[C@H](N(C)C(=O)c2ccc(OCC4CC4)cc2)C3)O1 (stereo partly shown) show?
**A:** > 288 µg/mL

**Q:** Bench note: what solubility kinetic did CN(C(=O)c1ccc(OCC2CC2)cc1)[C@H]1CCc2cc([C@H]3CCCN3)ccc2C1 show?
**A:** > 221 µg/mL

**Q:** Bench note: what solubility kinetic did COC[C@H](C)NCc1ccc2c(c1)CC[C@H](N(C)C(=O)c1ccc(OCC3CC3)cc1)C2 show?
**A:** > 275 µg/mL

**Q:** Bench note: what solubility kinetic did CCN1[C@@H](c2ccc3c(c2)CC[C@H](N(C)C(=O)c2ccc(OCC4CC4)cc2)C3)CC[C@@H]1C show?
**A:** 168 µg/mL

**Q:** Bench note: what solubility kinetic did CN(C(=O)c1ccc(OCC2CC2)cn1)[C@H]1CCc2cc(C3CCCN3)ccc2C1 (stereo partly shown) show?
**A:** > 41 µg/mL

**Q:** Bench note: what solubility kinetic did CN(C(=O)c1ccc(OCC2CC2)cn1)[C@H]1CCc2cc(CN3CC4CCC3CC4)ccc2C1 show?
**A:** > 287 µg/mL

**Q:** Bench note: what solubility kinetic did CN(C(=O)c1ccc(OCC2CC2)cn1)[C@H]1CCc2cc(CNCC3CCCC3)ccc2C1 show?
**A:** > 281 µg/mL

**Q:** Bench note: what solubility kinetic did CCN(CC)Cc1ccc2c(c1)CC[C@H](N(C)C(=O)c1ccc(OCC3CC3)cc1)C2 show?
**A:** > 267 µg/mL

**Q:** Bench note: what solubility kinetic did CN(C(=O)c1ccc(OCC2CC2)cc1)[C@H]1CCc2cc(CNCC3CCOC3)ccc2C1 (stereo partly shown) show?
**A:** > 281 µg/mL

**Q:** Bench note: what solubility kinetic did CCN(Cc1ccc2c(c1)CC[C@H](N(C)C(=O)c1ccc(OCC3CC3)cc1)C2)CC1CCOCC1 show?
**A:** 30 µg/mL

**Q:** Bench note: what solubility kinetic did CN(C(=O)c1ccc(OCC2CC2)cc1)[C@H]1CCc2cc([C@H]3CCCN3CC3CCOCC3)ccc2C1 show?
**A:** 15 µg/mL

**Q:** Bench note: what solubility kinetic did CN(C(=O)c1ccc(OCC2CC2)cc1)[C@H]1CCc2cc(CN3C[C@@H]4CC[C@H]3C4)ccc2C1 show?
**A:** > 279 µg/mL

**Q:** Bench note: what solubility kinetic did CC(C)OCCNCc1ccc2c(c1)CC[C@H](N(C)C(=O)c1ccc(OCC3CC3)cc1)C2 show?
**A:** > 282 µg/mL

**Q:** Bench note: what solubility kinetic did O=C(N[C@H]1CCc2cc(CN3CCCCCC3)ccc2C1)c1ccc(NC(=O)C2CCCC2)cc1 show?
**A:** < 4 µg/mL

**Q:** Bench note: what solubility kinetic did CC1CCN(c2ccc(C(=O)N(C)[C@H]3CCc4cc(CNCC5CCOCC5)ccc4C3)cc2)CC1 show?
**A:** > 302 µg/mL

**Q:** Bench note: what solubility kinetic did CCCCOc1ccc(C(=O)N[C@H]2CCc3cc(CN4CCCC4)ccc3C2)cc1 show?
**A:** 13 µg/mL

**Q:** Bench note: what solubility kinetic did CN(C(=O)c1ccc(OCC2CC2)cn1)[C@H]1CCc2cc(CNCC3CCOCC3)ccc2C1 show?
**A:** > 289 µg/mL

**Q:** Bench note: what solubility kinetic did CN(C(=O)c1ccc(OCC2CC2)cc1)[C@H]1CCc2cc(C3CCCCN3)ccc2C1 (stereo partly shown) show?
**A:** 10 µg/mL

**Q:** Bench note: what solubility kinetic did COCC(C)(C)CNCc1ccc2c(c1)CC[C@H](N(C)C(=O)c1ccc(OCC3CC3)cc1)C2 show?
**A:** > 289 µg/mL

**Q:** Bench note: what solubility kinetic did CN(C(=O)c1ccc(OCC2CC2)cc1)[C@H]1CCc2cc(CNC3CCCCC3)ccc2C1 show?
**A:** > 280 µg/mL

**Q:** Bench note: what solubility kinetic did CN(C(=O)c1ccc(OCC2CC2)cc1)[C@H]1CCc2cc(CN3CCCC3)ccc2C1 show?
**A:** 199 µg/mL

**Q:** Bench note: what solubility kinetic did C[C@H]1CC[C@H](c2ccc3c(c2)CC[C@H](N(C)C(=O)c2ccc(OCC4CC4)cc2)C3)N1C show?
**A:** > 273 µg/mL

**Q:** Bench note: what solubility kinetic did CCOCCCNCc1ccc2c(c1)CC[C@H](N(C)C(=O)c1ccc(OCC3CC3)cc1)C2 show?
**A:** > 282 µg/mL
